EXPERIMENTAL_PROTOCOL: Distribution coefficient, shake-flask n-octanol/buffered aqueous solution pH 7.40
Type: physicochemical
MEASUREMENT_CONTEXT: n-octanol/water partitioning, pH 7.40, 25 °C
TEST_READOUT: log D7.4

[O-]c1cccc2ccc(/C=N/CCN3CCOCC3)nc12.[O-]c1cccc2ccc(/C=N/CCN3CCOCC3)nc12.[Zn+2] | +0.86 ± 0.09
[O-]c1cccc2ccc(/C=N/CCCN3CCOCC3)nc12.[O-]c1cccc2ccc(/C=N/CCCN3CCOCC3)nc12.[Zn+2] | >1.5

Batch: log D7.4 for all items listed.
1. [O-]c1cccc2ccc(/C=N/CCN3CCCCC3)nc12.[O-]c1cccc2ccc(/C=N/CCN3CCCCC3)nc12.[Zn+2]
2. [Cu+2].[O-]c1cccc2ccc(/C=N/CCCN3CCOCC3)nc12.[O-]c1cccc2ccc(/C=N/CCCN3CCOCC3)nc12

Result:
1: >1.5; 2: >1.5

====

Please go through the items and note down their Thermodynamic solubility S7.4.
EXPERIMENTAL_PROTOCOL: Thermodynamic solubility in water at pH 7.40
Assay type: physicochemical
MEASUREMENT_CONTEXT: pH 7.40, 10 mM HEPES, 37 °C, 24 h incubation
Answers are plain numbers, in µM.

Reference set (3 entries):
[Cu+2].[O-]c1cccc2ccc(/C=N/CCCN3CCOCC3)nc12.[O-]c1cccc2ccc(/C=N/CCCN3CCOCC3)nc12 | 1821
[O-]c1cccc2ccc(/C=N/CCCN3CCOCC3)nc12.[O-]c1cccc2ccc(/C=N/CCCN3CCOCC3)nc12.[Zn+2] | 87
[O-]c1cccc2ccc(/C=N/CCN3CCCCC3)nc12.[O-]c1cccc2ccc(/C=N/CCN3CCCCC3)nc12.[Zn+2] | 694

Query: Quick one: Thermodynamic solubility S7.4 of `[O-]c1cccc2ccc(/C=N/CCN3CCOCC3)nc12.[O-]c1cccc2ccc(/C=N/CCN3CCOCC3)nc12.[Zn+2]` ?
Result: 1674

====

EXPERIMENTAL_PROTOCOL: Proton dissociation constants by UV–vis spectrophotometric titrations
Assay type: physicochemical
MEASUREMENT_CONTEXT: water with 0.10 M KCl, quinolinium nitrogen, I = 0.1 M KCl, t = 25.0 °C, read-out: pKa (NqH+)
Please go through the items and note down their pKa.

Reference set (2 entries):
Oc1cccc2ccc(/C=N/CCCN3CCOCC3)nc12 | 2.77
Oc1cccc2ccc(/C=N/CCN3CCCCC3)nc12 | 2.8

API: the following record is the query input.
Query: Quick one: pKa of `Oc1cccc2ccc(/C=N/CCN3CCOCC3)nc12` ?
Result: 2.83
